# measuredOn: Histamine H2 receptor (Homo sapiens, UniProt P25021)
# Sequence (P25021 whole entry): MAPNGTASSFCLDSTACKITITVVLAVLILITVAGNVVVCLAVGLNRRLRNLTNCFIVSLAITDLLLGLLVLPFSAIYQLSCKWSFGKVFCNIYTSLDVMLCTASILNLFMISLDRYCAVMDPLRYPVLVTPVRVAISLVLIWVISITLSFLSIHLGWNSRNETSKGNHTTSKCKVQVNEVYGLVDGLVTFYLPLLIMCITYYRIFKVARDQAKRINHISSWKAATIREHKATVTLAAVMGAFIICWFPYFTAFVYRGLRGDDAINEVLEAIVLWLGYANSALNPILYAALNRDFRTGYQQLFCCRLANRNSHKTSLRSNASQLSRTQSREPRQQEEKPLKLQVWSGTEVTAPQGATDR
measure: Ki

### Prompt So what does the record say about Ki for `c1cc(OCCCN2CCCCC2)ccc1CN1CCCCC1` ?
### Response > 10 µM
